Reference source for all entries: the Deep4Chem optical property database

test: solvent given as SMILES; settings: in CS(C)=O
measure_name: emission maximum (nm)
Give bare numbers, in nm.

These solved cases illustrate the format of a correct answer.
# molecule, emission maximum [nm]
records = [
    ("CN(C)c1ccc(-c2cc(-c3ccc4ccccc4c3)nc(-c3ccccc3)n2)cc1", 599),
    ("O=C(O)CCCc1cc(C#Cc2ccccc2)c2ccc3c(C#Cc4ccccc4)cc(C#Cc4ccccc4)c4ccc1c2c34", 461),
    ("Cn1c2ccc(S(=O)(=O)Cl)cc2c(=O)c2cc(S(=O)(=O)Cl)ccc21", 424),
    ("C=Cc1ccc(-c2ccc(-c3nnc(-c4ccc(-c5nnc(-c6ccc(-c7ccc(C=C)cc7)s6)o5)cc4)o3)s2)cc1", 423),
]

Field: emission maximum. Fill in for each record below.
1. CN(C)c1ccc(-c2nc3c(c4c2-c2ccc(C#N)cc2CC4)-c2ccc(C#N)cc2CC3)cc1
2. CC(C)[Si]1(C(C)C)c2cc(C#N)ccc2-c2ccc(N(c3ccccc3)c3ccccc3)cc21
3. Cc1cc(O)c(C(C)C)cc1/N=C/c1ccc(C(F)(F)F)cc1
4. F[B-]1(F)N2C(=Nc3cccc4cccc2c34)c2cccc[n+]21
5. COc1ccc(/C=C/c2cc(/C=C/c3ccc(OC)cc3)nc(/C=C/c3ccc(N(c4ccccc4)c4ccccc4)cc3)n2)cc1
6. Clc1ccc(-c2nc3ccccc3c3cc4ccccn4c23)s1
7. NS(=O)(=O)c1ccc(N2N=C(c3ccc(O)cc3)CC2c2ccc(Br)cc2)cc1 (stereo not given)

1. 516
2. 500
3. 439
4. 498
5. 622
6. 523.5
7. 424

Could you report emission maximum for every entry in the following list?
1. CCCN1/C(=C/C=C(/C=C/C2=[N+](CCC)c3ccccc3C2(C)C)c2cc[n+](C)cc2)C(C)(C)c2ccccc21
2. COc1ccc2c(=O)c3c([nH]c2c1)-c1cc(Cl)ccc1NC3(C)C
3. CCN(CC)c1ccc2cc(/C=C/c3cccc[n+]3CCCS(=O)(=O)[O-])c(=O)oc2c1

1: 657; 2: 511; 3: 642

List the reported emission maximum of each molecule below.
1. CCOC(=O)CN(CC(=O)OCC)c1ccc(-c2cc(-c3ccccn3)nc(-c3ccccn3)c2)cc1
2. CC1(C)Nc2ccccc2-c2[nH]c3ccccc3c(=O)c21
3. CCCCCCCCn1c2ccccc2c(=O)c2ccccc21
4. CC(=O)O[B-]1(OC(C)=O)OC(/C=C/c2ccc(C)cc2)=CC(/C=C/c2ccc(C)cc2)=[O+]1
5. CN1/C(=C/C=C(/C=C/c2sc3ccccc3[n+]2C)c2ccc(F)cc2)Sc2ccccc21
6. CCOC(=O)C1=C(N)n2c(=O)c3ccccc3c(=O)n2C1c1cccs1 (stereo not given)
7. CCN1c2ccc(/C=N/Nc3ccccn3)cc2Sc2cc(-c3cccc4ccccc34)ccc21

1: 466; 2: 510; 3: 414; 4: 499; 5: 681; 6: 439; 7: 498

Count: 4. Required value per item: emission maximum.
1. COc1cc(-c2nc3sc4ccccc4c3s2)cc(OC)c1OC
2. CC(C)[Si]1(C(C)C)c2cc(N(C)C)ccc2-c2ccc(C(F)(F)F)cc21
3. CN(C)c1ccc(/C=C/c2cc[n+](CCCCC[n+]3ccc(/C=C/c4ccc(N(C)C)cc4)cc3)cc2)cc1
4. COc1ccc2c3c([nH]c2c1)C(C)=NCC3

424
451
610
420

---

assay: solvent given as SMILES; settings: in C1COCCO1
What emission maximum was measured for each of the following?
Give bare numbers, in nm.

# compound, endpoint_result
data = [
    ("COC(=O)c1ccc(/C=C2\\C=C(c3ccc([N+](=O)[O-])cc3)OC2=O)cc1", 493),
    ("N#Cc1cccc2c(N)c(-c3nn([C@H]4C[C@H](O)[C@@H](CO)O4)c4ncnc(N)c34)ccc12", 488),
    ("N#Cc1nc2c3ccc(N(c4ccccc4)c4ccccc4)cc3c3cc(N(c4ccccc4)c4ccccc4)ccc3c2nc1C#N", 586.91),
]

Hi there! I need emission maximum for each item below, if you can.
1. NS(=O)(=O)c1ccc(N2N=C(c3ccc(O)cc3)CC2c2ccc(Br)cc2)cc1 (stereo not drawn)
2. Nc1ncnc2c1c(-c1ccc3ccccc3c1)nn2[C@H]1C[C@H](O)[C@@H](CO)O1
3. Cc1cc(O)c(C(C)C)cc1/N=C/c1ccc(C(F)(F)F)cc1
4. O=Cc1cc(N2CCCCC2)c2ccc3c(N4CCCCC4)cc(N4CCCCC4)c4ccc1c2c43
5. COc1ccc(/C=N/c2cc(C(C)C)c(O)cc2C)cc1

[417, 359, 424, 557, 407]

---

experiment: solvent given as SMILES; conditions: in ClCCl
# thresholds on emission maximum define classes: small value = under 400 nm, mid value = from 400 nm up to 500 nm, large value = 500 nm and over

# molecule, discrete_label
records = [
    ("c1ccc(-c2c3ccc(=[N+]4CCCCC4)cc-3oc3cc(N4CCCCC4)ccc23)cc1", "large value"),
    ("Oc1ccccc1-c1nc(-c2ccccc2)c2ccccn12", "mid value"),
]

Let us examine a further case.
Into which bin does this molecule go? "CC(C)(C)c1ccc2c(c1)c1cc(C(C)(C)C)ccc1n2-c1ccc(N(c2ccc(-c3ccc(-c4ccc(N(c5ccc(-n6c7ccc(C(C)(C)C)cc7c7cc(C(C)(C)C)ccc76)cc5)c5ccc(-n6c7ccc(C(C)(C)C)cc7c7cc(C(C)(C)C)ccc76)cc5)cc4)c4nsnc34)cc2)c2ccc(-n3c4ccc(C(C)(C)C)cc4c4cc(C(C)(C)C)ccc43)cc2)cc1"
large value

---

assay: solvent given as SMILES; settings: in CCCCCC
measure_name: emission maximum (nm)
Numbers only, in nm.

Sample answers from the record:
# item_smiles, emission maximum / nm
data = [
    ("CC(C)[Si](C#Cc1ccc(C#C[Si](C(C)C)(C(C)C)C(C)C)c2nc3c(ccc4ccccc43)nc12)(C(C)C)C(C)C", 444),
    ("N#CSC1=CC2=C(c3c(Cl)cccc3Cl)c3cc(SC#N)c(NCc4ccccc4)n3[B-](F)(F)[N+]2=C1NCc1ccccc1", 655),
    ("CCCCCCCCC1(CCCCCCCC)c2cc(C=O)ccc2-c2ccc(/C=C/c3ccc(N(c4ccccc4)c4ccccc4)cc3)cc21", 442),
]

Count: 6. Required value per item: emission maximum.
1. CCCCCCCCN1c2ccc(C#Cc3ccc(OC)cc3)cc2Sc2cc(C=O)ccc21
2. CCCCCCCCN1c2ccc(C#Cc3ccc(C(F)(F)F)cc3)cc2Sc2cc(C=O)ccc21
3. O=C1c2ccccc2-c2cnccc21
4. Cc1ccc2ccc3c(C)ccc4ccc1c2c43
5. CON(OC)c1cc2c3cc(-c4c(C)cc(C)cc4C)cc4c5cc(-c6c(C)cc(C)cc6C)cc6c7cc(B(c8c(C)cc(C)cc8C)c8c(C)cc(C)cc8C)cc8c9cc(-c%10c(C)cc(C)cc%10C)cc%10c%11cc(-c%12c(C)cc(C)cc%12C)cc%12c(c1)c2c1c(c43)c(c65)c(c78)c(c9%10)c1c%11%12
6. N#Cc1nc2c3ccc(-n4c5ccccc5c5ccccc54)cc3c3cc(-n4c5ccccc5c5ccccc54)ccc3c2nc1C#N

494
490
464.17
380
490
469.61

For every listed record, write down its emission maximum.
1. COC(=O)c1ccc2ccc3cccc4ccc1c2c34
2. F[B-]1(F)OC(c2ccc(C(F)(F)F)cc2)=Cc2cc(Cl)nc[n+]21

[385, 421]

---

assay: solvent given as SMILES; conditions: in CC#N
Values of emission maximum greater than or equal to 500 nm map to 1.0; values below map to 0.0.

# item_smiles, discrete_label
rows = [
    ("O=C1O[B-]2(OC1=O)OC(c1ccccc1)=CC(c1ccc3ccccc3c1)=[O+]2", 1.0),
]

Say whether "Cc1ccc(-c2ccc(/C=C/c3ccc(Br)n3C)cn2)nc1" shows emission maximum of 500 nm or more.
0.0

Quick check, emission maximum >= 500 nm? "c1ccc2cc(-c3cc(-c4nccs4)nc(-c4nccs4)c3)ccc2c1"
0.0

---

test: solvent given as SMILES; conditions: in ClCCl
Exercise: for every item that follows, state its recorded emission maximum.
Give bare numbers, in nm.

Please review the following examples before continuing.
# item_smiles, emission maximum [nm]
measured = [
    ("CN(C)c1ccc(/C=C/c2nc(/C=C/c3ccc(N(C)C)cc3)c3ccccc3n2)cc1", 545),
    ("CCCCN(CCCC)c1ccc(/C=C/c2ccc3nc(/C=C/c4nc5ccc(/C=C/c6ccc(N(CCCC)CCCC)cc6)cc5n(CCC)c4=O)c(=O)n(CCC)c3c2)cc1", 736),
    ("Cc1ccc(N(c2ccccc2)c2ccc3ccc4c(N(c5ccccc5)c5ccc(C)cc5)ccc5ccc2c3c54)cc1", 484),
]

Lab note: each molecule below needs its emission maximum filled in.
1. O=C(O)C1=C(C(=O)O)C2=C[C@H]3c4ccccc4[C@]2([Se]1)c1ccccc13
2. COc1cc2c3c(c4cc(OC)c(OC)c(OC)c4c2c(OC)c1OC)=[N+]1C(=C(c2c(C)cc(C)cc2C)c2cc4c5cc(OC)c(OC)c(OC)c5c5c(OC)c(OC)c(OC)cc5c4n2[B-]1(F)F)C=3
3. COc1ccc(-c2cc3c(s2)c(C(C)=O)cc(=O)n3Cc2ccccc2)cc1

507
771
512
